Data provenance: ChEMBL document CHEMBL5729376

Exercise: for every item that follows, state its recorded pIC50.
Biological target: Amine oxidase [flavin-containing] A (Homo sapiens)
Sequence (P21397 whole entry, canonical isoform): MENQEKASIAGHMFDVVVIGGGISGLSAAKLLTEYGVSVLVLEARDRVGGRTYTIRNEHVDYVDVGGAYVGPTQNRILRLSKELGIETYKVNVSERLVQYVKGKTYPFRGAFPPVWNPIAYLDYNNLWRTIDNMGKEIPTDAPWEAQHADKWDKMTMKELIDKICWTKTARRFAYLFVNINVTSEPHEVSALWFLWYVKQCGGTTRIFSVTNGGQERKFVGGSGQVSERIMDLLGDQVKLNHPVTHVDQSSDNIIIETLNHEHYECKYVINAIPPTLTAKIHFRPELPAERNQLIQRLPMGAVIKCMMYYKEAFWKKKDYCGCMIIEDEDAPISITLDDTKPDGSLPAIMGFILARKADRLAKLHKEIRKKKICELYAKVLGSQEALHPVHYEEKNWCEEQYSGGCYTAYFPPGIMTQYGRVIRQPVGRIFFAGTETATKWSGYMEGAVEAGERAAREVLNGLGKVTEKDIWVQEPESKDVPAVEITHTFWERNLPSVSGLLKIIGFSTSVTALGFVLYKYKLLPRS
Assay: SSAO Activity Assay: Amine oxidase activity of recombinant hSSAO, hMAO-A, and hMAO-B isoforms are measured using the MAO-Glo assay kit (Promega, V1402). Ten nL test compounds (with DMSO as vehicle, 0.1% v/v for hSSAO, hMAO-A and hMAO-B) were added into assay plates by Echo, and pre-incubated with 5 μL of enzyme for 30 mins at room temperature before the addition of 5 μL of luminogenic substrate. The substrate concentration is 40 μM for human recombinant SSAO, 40 μM for human recombinant MAO-A, and 4 μM for human recombinant MAO-B. The hSSAO and hMAO-A assays were conducted in the MAO-A reaction buffer in the kit, and the MAO-B assay was conducted in the MAO-B reaction buffer. Oxidation of the substrate was conducted for 1 hr, before the addition of detecting reagent according the manufacture's protocol. The IC50 value of the tested compounds was calculated by fitting the dose response curve using a 4-parameter non-linear regression routine.
pIC50: −log10 of the molar value.

Recorded results for 3 compounds are shown here.
Lookup: Which pIC50 is listed for "C[C@H](CN1CCCC1=O)CS(=O)(=O)c1ccc(OC/C(=C/F)CN)cc1" ?
Found: < 4.52

Lookup: Request: "NC/C(=C\F)COc1ccc(S(=O)(=O)CC23CCC(NC(=O)C4CC4)(CC2)CC3)cc1"
Found: < 4.52

Lookup: Same for "NC/C(=C\F)COc1ccc(S(=O)(=O)Cn2ccccc2=O)cc1"
Found: < 4.52

Provide pIC50 values for the following items, in order.
1. CC1(CS(=O)(=O)c2ccc(OC/C(=C/F)CN)cc2)CCOCC1
2. COCC(COC)CS(=O)(=O)c1ccc(OC/C(=C/F)CN)cc1

Found:
1. < 4.52
2. < 4.52

Kindly give each listed record's pIC50.
1. NC/C(=C\F)COc1ccc(S(=O)(=O)CC23CCC(C4(NC(=O)C5CC5)CC4)(CC2)CC3)cc1
2. NC/C(=C\F)COc1ccc(S(=O)(=O)COC2CCN(C(=O)C3CCCC3)CC2)cc1
3. NC/C(=C\F)COc1ccc(S(=O)(=O)CC23CCC(C4(O)CC4)(CC2)CC3)cc1
4. NC/C(=C\F)COc1ccc(S(=O)(=O)C[C@@H]2CCCO2)cc1
5. CC(C)N1CCN(CS(=O)(=O)c2ccc(OC/C(=C/F)CN)cc2)C(=O)C1
6. CO[C@H]1CC[C@@H](CS(=O)(=O)c2ccc(OC/C(=C/F)CN)cc2)CC1
7. NC/C(=C\F)COc1ccc(S(=O)(=O)C[C@H]2CC[C@H](O)CC2)cc1
8. CO[C@H]1CC[C@H](CS(=O)(=O)c2ccc(OC/C(=C/F)CN)cc2)CC1

Found:
1. < 4.52
2. < 4.52
3. < 4.52
4. < 4.52
5. < 4.52
6. 4.52 to 5.00
7. 4.52 to 5.00
8. 4.52 to 5.00

Hi, could you look up pIC50 for each item in my list?
1. CC(C)C(=O)N1CC(CS(=O)(=O)c2ccc(OC/C(=C/F)CN)cc2)C1
2. CC1(COCS(=O)(=O)c2ccc(OC/C(=C/F)CN)cc2)CCOCC1
3. C[C@H](CN1CCC2(CCCC2)C1=O)CS(=O)(=O)c1ccc(OC/C(=C/F)CN)cc1
4. NC/C(=C\F)COc1ccc(S(=O)(=O)CC23CC(C(=O)NC4CCC4)(C2)C3)cc1
5. CC(C)N(C)C(=O)C(C)(C)CS(=O)(=O)c1ccc(OC/C(=C/F)CN)cc1
6. NC/C(=C\F)COc1ccc(S(=O)(=O)COCC2CCOCC2)cc1

Found:
1: < 4.52; 2: < 4.52; 3: < 4.52; 4: < 4.52; 5: < 4.52; 6: < 4.52

For every item below, please supply its pIC50.
1. NC/C(=C/F)COc1ccc(S(=O)(=O)CC23CCC(NC(=O)C4CC4)(CC2)CC3)cc1
2. CC(C)(C)C(=O)NC12CCC(CS(=O)(=O)c3ccc(OC/C(=C/F)CN)cc3)(CC1)C2

Found:
1. < 4.52
2. > 5.00

Provide each entry's pIC50 from the list below.
1. NC/C(=C\F)COc1ccc(S(=O)(=O)Cc2ccc(C(=O)NC3CCC3)c(C(F)(F)F)c2)cc1
2. NC/C(=C\F)COc1ccc(S(=O)(=O)CC23CCC(C(=O)NC4CCC4)(CC2)CC3)cc1
3. NC/C(=C\F)COc1ccc(S(=O)(=O)COC2CCOCC2)cc1
4. NC/C(=C\F)COc1ccc(S(=O)(=O)C[C@H]2CC[C@H](NC(=O)C3CC3)CC2)cc1
5. CC(C)(CN1CCOCC1)CS(=O)(=O)c1ccc(OC/C(=C/F)CN)cc1
6. N#CC1(COCS(=O)(=O)c2ccc(OC/C(=C/F)CN)cc2)CCOCC1

Found:
["< 4.52", "< 4.52", "< 4.52", "< 4.52", "< 4.52", "< 4.52"]

// input: 5 compounds below; output: pIC50 for each
1. NC/C(=C\F)COc1ccc(S(=O)(=O)CC2CCOCC2)c(F)c1
2. NC/C(=C\F)COc1ccc(S(=O)(=O)CC2CCOCC2)cc1
3. NC/C(=C\F)COc1ccc(S(=O)(=O)CC2(O)CCOCC2)cc1
4. NC/C(=C\F)COc1ccc(S(=O)(=O)C[C@H]2CCOC2)cc1
5. C[C@@H](CN1CCCCC1=O)CS(=O)(=O)c1ccc(OC/C(=C/F)CN)cc1

Found:
1: > 5.00; 2: < 4.52; 3: < 4.52; 4: 4.52 to 5.00; 5: < 4.52

Please supply pIC50 for each of the following items, keeping them in order.
1. C[C@@H](CS(=O)(=O)c1ccc(OC/C(=C/F)CN)cc1)N1CCCCC1=O
2. CC(C)C(=O)N1CCC(C)(CS(=O)(=O)c2ccc(OC/C(=C/F)CN)cc2)CC1
3. NC/C(=C\F)COc1ccc(S(=O)(=O)CC2CCN(C(=O)C3CC3)CC2)c(Cl)c1

Found:
< 4.52
< 4.52
< 4.52
